Entries annotated with measured pKd
- STUDY TARGET: T1, Rat HER3 (CD33-[Rat HER3, residues 20-643]-TAG) (rat, UniProt Q62799 20-643)
- T1 construct: range 20-643; CD33 leader left out as signal; also called ra HER3-Tag; not shown: C-terminal TAG (e.g. FLAG TAG)
- MEASUREMENT NOTES: solution equilibrium titration (SET), IgG
pKd: −log10 of the molar value.
MEASURED PARAMETER: pKd

>  <BINDER>
MOR10702 (antibody, human IgG1, kappa, V domains shown, tested as IgG) VH: EVQLLESGGGLVQPGGSLRLSCAASGFTFSSYAMSWVRQAPGKGLEWVSVISAWGHVKYYADSVKGRFTISRDNSKNTLYLQMNSLRAEDTAVYYCARWGDEGFDIWGQGTLVTVSS VL: DIQMTQSPSSLSASVGDRVTITCRASQGISNWLAWYQQKPGKAPKLLIYGASSLQSGVPSRFSGSGSGTDFTLTISSLQPEDFATYYCQQYSSFPTTFGQGTKVEIKR

>  <MEASURED PARAMETER>
pKd

>  <TEST VALUE>
11.22

$$$$
>  <BINDER>
MOR10701 (antibody, human IgG1, kappa, V domains shown, tested as IgG) VH: EVQLLESGGGLVQPGGSLRLSCAASGFTFSSYAMSWVRQAPGKGLEWVSVTGAVGRSTYYPDSVKGRFTISRDNSKNTLYLQMNSLRAEDTAVYYCARWGDEGFDIWGQGTLVTVSS VL: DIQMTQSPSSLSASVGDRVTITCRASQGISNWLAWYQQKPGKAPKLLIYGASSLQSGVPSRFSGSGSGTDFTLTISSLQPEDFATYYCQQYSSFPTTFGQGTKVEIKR

>  <MEASURED PARAMETER>
pKd

>  <TEST VALUE>
11.00

$$$$
>  <BINDER>
MOR09824 (antibody, human IgG1, kappa, V domains shown, tested as IgG) VH: QVQLVESGGGLVQPGGSLRLSCAASGFTFSSYAMSWVRQAPGKGLEWVSVISAWGHVKYYADSVKGRFTISRDNSKNTLYLQMNSLRAEDTAVYYCARWGDEGFDIWGQGTLVTVSS VL: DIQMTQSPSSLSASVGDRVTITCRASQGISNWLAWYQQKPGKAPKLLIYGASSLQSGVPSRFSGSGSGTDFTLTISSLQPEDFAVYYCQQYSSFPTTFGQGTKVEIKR

>  <MEASURED PARAMETER>
pKd

>  <TEST VALUE>
11.15

$$$$
>  <BINDER>
MOR09825 (antibody, human IgG1, kappa, V domains shown, tested as IgG) VH: QVQLVESGGGLVQPGGSLRLSCAASGFTFSSYAMSWVRQAPGKGLEWVSAINSQGKSTYYADSVKGRFTISRDNSKNTLYLQMNSLRAEDTAVYYCARWGDEGFDIWGQGTLVTVSS VL: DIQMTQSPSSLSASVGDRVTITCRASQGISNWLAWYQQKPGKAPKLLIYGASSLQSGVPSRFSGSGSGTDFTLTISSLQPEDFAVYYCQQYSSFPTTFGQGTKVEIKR

>  <MEASURED PARAMETER>
pKd

>  <TEST VALUE>
10.02

$$$$
